- PROTOCOL_TEXT: OD615 S. cerevisiae growth inhibition, permissive medium, pilot counter-assay, permissive growth control for S. cerevisiae lifespan shortening project (AID 705)
- COND: OD615, 24 h, at 10 µM, active compounds read high
QUANTITY_MEASURED: growth inhibition (%)
Give bare numbers, in %.

[[record]]
compound = "Oc1cc(Cc2ccccc2)cnc1CN1CCOCC1"
reported_value = 1.49


I'm hoping you can list growth inhibition for every compound here, please.
1. CCOC(=O)C1CCN(CC(O)COc2ccc(C(C)(C)CC)cc2)CC1 (stereo unspecified)
2. COc1ccc(N2C(=O)C3CCCN3C2c2cccc(OC)c2)cc1 (stereo unspecified)
3. CCC(C)Sc1nc2c(c(=O)[nH]c(=O)n2C)n1Cc1ccccc1Cl (stereo unspecified)
4. CSC1=NCCN1C(=O)COc1ccccc1
5. CC(C)=CC1C(C(=O)Nc2ccc(Br)cn2)C1(C)C (stereo unspecified)

A)
-14
2.15
-0.795
5.44
-14.6

---

- PROTOCOL_TEXT: RAM signaling pathway blockade in yeast – S. cerevisiae, Pdr1DBD-CYC8 efflux-inhibited sensitized strain, primary screen (AID 1298);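 further: 0% = DMSO untreated cells without growth and 100% = 10 µM 1-NA-PP1 full growth; higher means more yeast growth rescued from 5-FOA killing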
- COND: S. cerevisiae cbk1-as DSE1-URA3 strain, 5-FOA growth OD615, 2 d; at 50 µM; active compounds read high
QUANTITY_MEASURED: RAM network inhibition (%)
One number for each entry, in %.

[[record]]
compound = "O=c1[nH]c(NCCCO)nc2c1C1(CCCC1)Cc1ccccc1-2"
units_of_measure = "%"
reported_value = 6.67

[[record]]
compound = "CC(C)CCNC(=O)c1ccc2c(c1)N(Cc1ccccc1)C(=O)CS2=O (centres undefined)"
units_of_measure = "%"
reported_value = 1.41

[[record]]
compound = "CCOC(=O)CNC(=O)CSc1nc2sc(C)c(C)c2c(=O)n1C"
units_of_measure = "%"
reported_value = 5.94

[[record]]
compound = "COc1cc2c(cc1OC)C1=C(C#N)CN(C3CCCCC3)CN1CC2"
units_of_measure = "%"
reported_value = 3.92

[[record]]
compound = "Cc1oc(C(C)(C)C)cc1C(=O)Nc1ccc(C(=O)O)cc1"
units_of_measure = "%"
reported_value = -1.87


Go through the items and report each one's RAM network inhibition.
1. COC(=O)C1=CN(CC2CCCO2)C=C(C(=O)OC)C1c1ccsc1 (centres undefined)
2. C=CCSc1nnc(-c2cc(Br)ccc2N)c(=O)[nH]1
3. O=C(NC(=O)c1ccccc1)OCC(F)(F)F
4. Cc1nc2ccccc2n1-c1ccccc1

A)
1. 4.53
2. 2.42
3. 3.03
4. 4.25

List the reported RAM network inhibition of each compound below.
1. Cc1ccc(CNC(=O)c2ccc(Br)o2)cc1
2. CN(C(=O)CSc1nc(N)nn1-c1ccccc1)c1ccccc1
3. Cc1c(N2C(=O)CSC23C(=O)Nc2ccccc23)c(=O)n(-c2ccccc2)n1C (centres undefined)
4. CCOC(=O)c1c(N)sc(C(N)=O)c1C
5. CCCC(=O)C1=C(O)C(C(=O)OC)C(C)(C)CC1=Nc1ccncc1 (centres undefined)

A)
[3.41, 2.3, 3.91, 0.78, 0.11]

Go through the items and report each one's RAM network inhibition.
1. CN(C)c1ccc(C2N3CC4(C)CN2CC(C)(C3)C4O)cc1 (centres undefined)
2. CC1CCc2c(sc3nc(SCc4nc(-c5ccccc5)no4)n(C)c(=O)c23)C1 (centres undefined)
3. COc1ccc(-c2noc(Cc3cccs3)n2)cc1
4. Cc1ccc2c(c1)NCC(C(=O)NC1CCC(C)CC1)O2 (centres undefined)

A)
[2.42, 2.32, 4.89, 5.26]

For every item below, please supply its RAM network inhibition.
1. CCCCC(=O)Nc1nc2c(OC)ccc(OC)c2s1
2. C=CCOc1cccc(C2C(C(=O)c3ccco3)=C(O)C(=O)N2CCN2CCOCC2)c1 (centres undefined)
3. CCN(CC)CCCNC(=O)Cn1ncc2c(=O)oc3ccc(C)cc3c21
4. COc1ccccc1C1C(C(N)=O)=C(C)Nc2nc(-c3ccccc3Cl)nn21 (centres undefined)
5. Cc1nn(C(=O)c2cccs2)c(N)c1-c1ccccc1
6. Cc1ccc2cc(-c3noc(C4CCCCC4)n3)c(=O)[nH]c2c1

A)
1. 3.86
2. -0.11
3. 5.92
4. -2.19
5. 2.36
6. 4.76

Every entry's value here was drawn from PubChem BioAssay.
